Study Target: es-LAPase
Run Description: es-LAPase enzyme kinetic inhibition assay (1-leucine-β-naphthylamide substrate)
Condition Label: Bestatin 167 μM, Glutathione 167 μM, Thioredoxin 17 μM; read-out: Ki (inhibition constant)
pKi: −log10 of the molar value.
Property Label: pKi

>>> print(df.to_string())
                                   molecule  property_label  observed_value
0  N[C@@H](CCC(=O)N[C@@H](CS)C(=O)NCC(=O)O)C(=O)O [Glutathione]             pKi            5.82
